The reported numbers originate from ChEMBL document CHEMBL3507680.

Measured cytotoxicity at 70.5 h accompanies every entry in the list below.
# assay method text: Human HepG2 cell viability assay in 384 well format
# Assay type: toxicity, cell-based
# Parameters: dose 125 nL, time 70.5 hour; concentration not given beside the values
# conditions: HepG2 cells, read-out: Inhibition
Just the number please, in %, no unit attached.

[
  {
    "structure smiles string": "O=C(CC(F)(F)F)N1CCc2[nH]nc(-c3ccc4c(c3)OCO4)c2C1",
    "cytotoxicity at 70.5 h [%]": 7.4
  },
  {
    "structure smiles string": "O=C1CC[C@]2(CC[C@@H](NC(=O)NCc3ccccc3)CC2)N1",
    "cytotoxicity at 70.5 h [%]": 15.6
  },
  {
    "structure smiles string": "Cc1nnc(CN(C)CC(=O)NC(C)(C)c2ccc(F)cc2)n1C",
    "cytotoxicity at 70.5 h [%]": -6.19
  }
]

Name the recorded cytotoxicity at 70.5 h for `COCc1nn(Cc2ccc(Br)s2)c(=O)o1` .
-9.84

What do we get for `Cc1ccc(CN2CC[C@H]3C[C@@H](c4nc(C5CC5)cs4)O[C@@H]3C2)o1` ?
-7.46

Request: `c1ccc2c(Cc3nnc([C@H]4CCNC4)o3)c[nH]c2c1`
-2.38
